Target: soluble epoxide hydrolase (sEH) (Homo sapiens)
Sequence (P34913 whole entry): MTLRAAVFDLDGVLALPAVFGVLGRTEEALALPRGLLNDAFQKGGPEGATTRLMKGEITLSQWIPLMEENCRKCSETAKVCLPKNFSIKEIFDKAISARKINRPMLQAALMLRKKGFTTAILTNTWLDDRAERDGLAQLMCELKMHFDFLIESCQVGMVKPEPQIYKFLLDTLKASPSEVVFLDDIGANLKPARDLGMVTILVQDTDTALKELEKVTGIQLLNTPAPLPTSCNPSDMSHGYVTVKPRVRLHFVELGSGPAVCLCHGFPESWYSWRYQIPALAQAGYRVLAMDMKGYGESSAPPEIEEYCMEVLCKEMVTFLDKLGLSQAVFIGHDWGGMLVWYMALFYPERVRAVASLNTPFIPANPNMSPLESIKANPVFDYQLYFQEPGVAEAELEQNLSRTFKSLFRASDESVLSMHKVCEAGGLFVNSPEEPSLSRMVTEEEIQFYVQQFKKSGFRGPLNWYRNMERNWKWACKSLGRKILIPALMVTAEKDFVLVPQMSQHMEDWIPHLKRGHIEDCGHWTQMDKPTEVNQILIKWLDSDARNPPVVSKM
Assay: recombinant enzyme inhibition
property.name: pKi
Give bare numbers, as −log10 of the molar value.

The compound listed as O=C(Nc1ccc(Cl)cc1)Nc1ccc(Cl)c(Cl)c1 [TCC, 3,4,4′-trichlorocarbanilide] shows pKi equal to 7.02

Attribution: paper PMC3156297
